Quick reference for GI50 among some molecules
Tested on: SK-MEL-5 melanoma
ASSAY_REMARKS: NCI tumour cell line growth inhibition, 48 h
OBSERVABLE: GI50

>>> value_reported("Cc1ccc(Cl)cc1Nc1nc(C(F)(F)F)ccc1C(=O)Oc1ccc(Cl)cc1")
"7.01 µM"
>>> value_reported("O=Nc1c(-c2cccc([N+](=O)[O-])c2)nc2ncccn12")
"15.2 µM"
>>> value_reported("COc1cc(-c2ccc(-c3ccc(C(=N)N)s3)s2)cc(OC)c1OC")
"1.52 µM"
>>> value_reported("O=C(Nc1ccccc1Cl)c1ccc(NC2=C(Cl)C(=O)N(Cc3ccccc3)C2=O)cc1")
"32.7 µM"
>>> value_reported("Cc1c2c(nn1-c1ccc(S/N=C3\\SCC(=O)CN3c3ccccc3)cc1)-c1ccccc1CC2")
"8.11 µM"
>>> value_reported("O=C1c2cccc3cccc(c23)C(=O)N1CCCCOc1ccc(-c2nc3ccc(N4CCOCC4)cc3[nH]2)cc1")
"1.6 µM"
>>> value_reported("CC(CN(CP(=O)([O-])[O-])CP(=O)([O-])[O-])N(CP(=O)([O-])[O-])CP(=O)([O-])[O-].N[C@@H]1CCCC[C@@H]1N.[Pt+2] (centres undefined)")
"> 100 µM"
>>> value_reported("CC1SC(c2cccs2)N(NC(=O)C(O)c2ccccc2)C1=O (centres undefined)")
"> 100 µM"
>>> value_reported("COc1ccc2c(CNCCCCO)cc3cc4c(cc3c2c1)OCO4")
"0.818 µM"

###

# TGI per record follows
Tested on: MCF7 breast
ASSAY_REMARKS: NCI tumour cell line growth inhibition, 48 h
OBSERVABLE: TGI (µM)

>>> value_reported("O=c1c2ccccc2nc(-c2ccc(Cl)cc2)n1O")
63.4
>>> value_reported("CC1OC(OC2C(CO)OC(O[C@H]3CC[C@@]4(C)C(=CC[C@H]5[C@@H]6C[C@@H]7O[C@](O)(CC[C@@H](C)COC8OC(CO)C(O)C(O)C8O)[C@@H](C)[C@@H]7[C@@]6(C)CC[C@@H]54)C3)C(OC3OC(C)C(O)C(O)C3O)C2O)C(O)C(O)C1O (some centres undefined)")
5.93
>>> value_reported("Cn1c2ccccc2c2c3c(c4c5ccccc5n(CCCCCC#N)c4c21)C(=O)N(O)C3=O")
27.9
>>> value_reported("CSC(=S)N/N=C(\\C)c1ccccn1")
11.2

###

Test system: 786-0 renal
ASSAY_REMARKS: NCI tumour cell line growth inhibition, 48 h
Where a SMILES comes first, the peptide text is derived from it. The star is where a group is joined. Boc = CC(C)(C)OC(=O)*; OBn = c1ccc(CO*)cc1; Bn = c1ccc(C*)cc1
OBSERVABLE: TGI (µM)

>>> value_reported("CN(C)/[N+]([O-])=N/Oc1cc(Nc2ccc(C(=O)O)cc2)c([N+](=O)[O-])cc1[N+](=O)[O-]")
55.3
>>> value_reported("Cc1ccc(/C=C(\\C#N)n2nnc3cc(F)c(F)cc32)cc1")
11.9
>>> value_reported("CC(C)CC(NC(=O)C(Cc1ccccc1)NC(=O)C(COCc1ccccc1)NC(=O)OC(C)(C)C)C(=O)OCc1ccccc1 (stereo not drawn) (Boc-Ser(Bn)-Phe-Leu-OBn; configuration not given here)")
30.8
>>> value_reported("COc1cc(/C=C/C(=O)c2ccc(Nc3nc(Nc4ccc(F)cc4)nc(Nc4ccc(F)cc4)n3)cc2)cc(OC)c1OC")
12
>>> value_reported("CC1OC(OC2C(CO)OC(O[C@H]3CC[C@@]4(C)C(=CC[C@H]5[C@@H]6C[C@@H]7O[C@](O)(CC[C@@H](C)COC8OC(CO)C(O)C(O)C8O)[C@@H](C)[C@@H]7[C@@]6(C)CC[C@@H]54)C3)C(OC3OC(C)C(O)C(O)C3O)C2O)C(O)C(O)C1O (some centres not stated)")
3.89

###

Measured TGI, listed per entry for reference.
Test system: SW-620 colon
ASSAY_REMARKS: NCI tumour cell line growth inhibition, 48 h
OBSERVABLE: TGI (µM)

>>> value_reported("O=Nc1c(-c2cccc([N+](=O)[O-])c2)nc2ncccn12")
6.03
>>> value_reported("COc1cc(O)c(C(=O)/C=C/c2ccc(O)cc2)cc1Oc1ccc(C(=O)/C=C/c2ccc(O)cc2)c(O)c1")
11

###

Tested on: OVCAR-4 ovarian
ASSAY_REMARKS: NCI tumour cell line growth inhibition, 48 h
OBSERVABLE: TGI

>>> value_reported("Cc1ccc(/C=C(\\C#N)n2nnc3cc(F)c(F)cc32)cc1")
"15.4 µM"
>>> value_reported("CCc1nnc2sc(-c3ccc(-c4ccc(Cl)cc4Cl)o3)nn12")
"> 100 µM"
>>> value_reported("COc1cc(-c2ccc(-c3ccc(C(=N)N)s3)s2)cc(OC)c1OC")
"3.95 µM"
>>> value_reported("OC1(c2ccc(Cl)cc2)c2ccccc2C2=Nc3ccccc3CN21 (stereo unspecified)")
"50.6 µM"
>>> value_reported("NS(=O)(=O)c1ccc(CNC(=S)NC(=O)Nc2ccc(Cl)c(Cl)c2)cc1")
"> 100 µM"
>>> value_reported("Cn1c(=O)c(Cc2ccc(F)cc2F)cc2cnc(NC3CCOCC3)nc21")
"> 25 µM"
>>> value_reported("CC(C)C[C@H](NC(=O)[C@@H](Cc1cccc2ccccc12)NC(=O)N1CCOCC1)B(O)O")
"> 57.8 µM"
>>> value_reported("COc1nc2c(nc(N)n2C2OC(CO)C(O)C(O)C2O)c(=O)n1C (stereo unspecified)")
"> 100 µM"
>>> value_reported("COCOc1cc(OC)ccc1C=O")
"> 100 µM"
>>> value_reported("Cc1cc(SCC(=O)c2ccc(Br)cc2)cc(C)[o+]1")
"83.7 µM"
>>> value_reported("Cc1nc2c(=O)[nH]c(=O)nc-2n(CCO)c1C")
"> 100 µM"

###

Tested on: HCC-2998 colon
ASSAY_REMARKS: NCI tumour cell line growth inhibition, 48 h
OBSERVABLE: GI50

>>> value_reported("CC(C)[C@]12O[C@H]1[C@@H]1O[C@]13[C@]1(O[C@H]1C[C@H]1c4c(C(=O)c5ccccc5)oc(OC(=O)c5ccccc5)c4CC[C@@]13C)[C@@H]2O")
"0.0378 µM"
>>> value_reported("Nc1nc(Cl)nc2c1ncn2C1O[C@H](CO)[C@@H](O)[C@@H]1F (some centres not stated)")
"0.075 µM"
>>> value_reported("O=C(Nc1ccccc1Cl)c1ccc(NC2=C(Cl)C(=O)N(Cc3ccccc3)C2=O)cc1")
"13.7 µM"
>>> value_reported("O=Nc1c(-c2cccc([N+](=O)[O-])c2)nc2ncccn12")
"15.2 µM"
>>> value_reported("Cc1ccc(/C=C(\\C#N)n2nnc3cc(F)c(F)cc32)cc1")
"2.96 µM"
>>> value_reported("O=C(CCN1CCCC1)Nc1ccc2c(NCCCCc3ccccc3)c3ccccc3nc2c1")
"0.815 µM"
>>> value_reported("O=C1NC(=NCCc2ccccc2Cl)S/C1=C\\c1ccc2ncccc2c1")
"6.33 µM"
>>> value_reported("CSC(=S)N/N=C(\\C)c1ccccn1")
"0.509 µM"
>>> value_reported("CC(CN(CP(=O)([O-])[O-])CP(=O)([O-])[O-])N(CP(=O)([O-])[O-])CP(=O)([O-])[O-].N[C@@H]1CCCC[C@@H]1N.[Pt+2] (configuration not stated)")
"> 100 µM"
>>> value_reported("NS(=O)(=O)c1ccc(-n2nc(-c3ccc(Cl)cc3)cc2C2=CC(=O)C=CC2=O)cc1")
"18.3 µM"
>>> value_reported("CCCCCCCCSC1=CC(=O)C(OC)=C(OC)C1=O")
"11.3 µM"
>>> value_reported("O=C1c2cccc3cccc(c23)C(=O)N1CCCCOc1ccc(-c2nc3ccc(N4CCOCC4)cc3[nH]2)cc1")
"5.25 µM"
>>> value_reported("C[n+]1c2ccccc2c(NC2CCNCC2)c2[nH]c3ccccc3c21")
"0.331 µM"
>>> value_reported("Cn1c(=O)c(Cc2ccc(F)cc2F)cc2cnc(NC3CCOCC3)nc21")
"> 25 µM"
>>> value_reported("Fc1ccc(Nc2nc(Nc3ccc(-c4nc5ccccc5[nH]4)cc3)nc(N3CCCC3)n2)cc1")
"2.39 µM"
>>> value_reported("CC1=C(C)C(=O)C(C(C)C2=C(C)C(=O)C(C)=C(C)C2=O)=C(C)C1=O")
"57.1 µM"
>>> value_reported("O=Cc1ccc(C(F)(F)F)cc1.[C-]#[O+].[C-]#[O+].[C-]#[O+].[Cr]")
"53.6 µM"

###

Tested on: RXF-631 renal
ASSAY_REMARKS: NCI tumour cell line growth inhibition, 48 h
OBSERVABLE: TGI

>>> value_reported("Cn1cc(C(=O)C2CCCCC2)ccc1=O")
"> 100 µM"
>>> value_reported("CC(=O)O[C@H]1CC[C@@]2(C)C(=CC[C@@H]3C2CC[C@]2(C)Nc4oncc4CC32)C1 (some centres not stated)")
"> 100 µM"
>>> value_reported("COc1ccccc1NC(=O)C1=C(C)NC(C)=C(C(=O)Nc2ccccc2OC)C1c1ccc(C(C)C)cc1")
"> 100 µM"
>>> value_reported("CCOC(=O)[C@H]1Nc2ccc(O)cc2C2c3ccccc3CC21 (some centres not stated)")
"> 100 µM"
>>> value_reported("O=C(O)/C(Cl)=C(/Cl)C(=O)Nc1cccc(Cl)c1")
"49.1 µM"
>>> value_reported("COc1nc2c(nc(N)n2C2OC(CO)C(O)C(O)C2O)c(=O)n1C (configuration not stated)")
"> 100 µM"
>>> value_reported("O=C1/C(=C/c2ccc(O)cc2)CCC1CNc1ccc(Cl)cc1 (configuration not stated)")
"32.1 µM"
